Entry source: PubChem BioAssay (NCI)

System: SF-295 CNS
Assay: NCI-60 one-dose screen, 48 h (100 = growth as untreated, 0 = no growth, -100 = all killed)
Settings: 10 µM
This is part of a sample that, as a whole, favours compounds with a hit. Of some 83,000 tested, about 20% had one in any assay.
parameter: growth (%)
One number for each entry, in %.

{"compound": "O=[N+]([O-])c1ccc(/C=C/C=C/c2ccccc2)c(Cl)c1", "units_label": "%", "growth": 98.7}

I would be grateful if you could provide growth for each of the following entries.
1. CCOC(=O)c1cc(/C=C/c2cccc(Cl)c2)on1
2. CC1=C(/C=C/C(C)=C/C=C/C(C)=C/CO)C(C)(C)CCC1

1. 88.2
2. 110

---

Test system: PC-3 prostate
Assay: NCI-60 one-dose screen, 48 h
Settings: 10 µM
Compounds without any hit were thinned out: in the full panel of roughly 83,000, 20% have a hit. Activity calls are given as the source filed them. Rule for the calls: active = growth percent below 10; inactive = the rest.
Pick from active, inactive when you respond.

# example entries with known answers
{"molecule": "OC(c1ccccn1)C(O)c1ccccn1 (configuration not stated)", "label_class": "inactive"}
{"molecule": "O=[N+]([O-])c1ccc(S(=O)(=O)NN=C2CCCCC2)cc1", "label_class": "inactive"}
{"molecule": "CC1C(=O)c2ccccc2CC1C(=O)O (configuration not stated)", "label_class": "inactive"}
{"molecule": "O=C(O)c1cccc([N+](=O)[O-])c1", "label_class": "inactive"}
{"molecule": "CC(=O)NC(N)=S", "label_class": "inactive"}

Please indicate how the test categorized "O=[N+]([O-])c1ccc(-c2noc(-c3cccs3)n2)cc1" .
inactive

Please indicate how the test categorized "COCCCC/C(=N\OCCN)c1ccc(C(F)(F)F)cc1" .
inactive

Please indicate how the test categorized "COC(=O)/C=C\C(=O)OC" .
inactive

Please indicate how the test categorized COc1cc2c3cc1Oc1c(OC)c(OC)cc4c1C(Cc1ccc(O)c(c1)Oc1ccc(cc1)CC3N(C)CC2)N(C)CC4 (configuration not stated) .
active

---

Test system: NCI-H522 lung
Test: NCI-60 one-dose screen, 48 h (100 = growth as untreated, 0 = no growth, -100 = all killed)
Settings: 10 µM
Compounds without any hit were thinned out: in the full panel of roughly 83,000, 20% have a hit.
parameter: growth (%)
One number for each entry, in %.

Study these solved cases before continuing.
{"compound": "O=S(=O)(O)C(Nc1ccccc1)c1ccccc1 (centres undefined)", "assay_result": 102}
{"compound": "NC(=S)CN1CCOCC1", "assay_result": 97.9}
{"compound": "CCOc1ccc(/C=N/N=C(N)N)cc1OCC", "assay_result": 99.2}
{"compound": "CC(=O)Cc1cc(-c2cc(CC(C)=O)[nH]n2)n[nH]1", "assay_result": 95.8}
{"compound": "CC1CCC2C(C)(C)C3CC12CC1OC13C (centres undefined)", "assay_result": 91.7}
{"compound": "COc1ccc(NC(=O)CCl)cc1", "assay_result": 47.8}
{"compound": "C=CCNC(=O)c1ccc(OC)cc1", "assay_result": -12.1}
{"compound": "COc1ccc(-c2cc(-c3cc(-c4ccc(OC)cc4)nc(N)n3)nc(N)n2)cc1", "assay_result": 100}
{"compound": "CCC(O)CC(CC)CO (centres undefined)", "assay_result": 117}
{"compound": "CCOC(=O)C(C#N)Cc1ccccc1 (centres undefined)", "assay_result": 111}

I would be grateful if you could provide growth for each of the following entries.
1. C/C(O)=C(\C=N\C(N)=S)C(=O)Nc1ccccc1
2. CCNc1nc2c(cnn2C)c(=O)[nH]1

[83.7, 98.4]

I would be grateful if you could provide growth for each of the following entries.
1. O=c1cc(-c2ccccc2)oc2c1ccc1ccccc12
2. COc1ccc(C2(O)CCCCC2)cc1

1: 79.3; 2: 99.7

---

System: RXF 393 renal
Assay: NCI-60 one-dose screen, 48 h (100 = growth as untreated, 0 = no growth, -100 = all killed)
Details: 10 µM
This is part of a sample that, as a whole, favours compounds with a hit. Of some 83,000 tested, about 20% had one in any assay.
parameter: growth (%)
One number for each entry, in %.

{"compound": "CC1NC(=O)NC1CCCCCC(=O)O (stereo not drawn)", "assayed_target": "RXF 393 renal", "assay_result": 105}
{"compound": "Cc1cc(=O)n(-c2ccc(F)cc2)[nH]1", "assayed_target": "RXF 393 renal", "assay_result": 93.5}
{"compound": "CCN(CC)CCCC(C)Nc1ccnc(/C=C/c2ccc(Cl)cc2)c1 (stereo not drawn)", "assayed_target": "RXF 393 renal", "assay_result": -61.8}
{"compound": "CN(C)CCN(C)CC(C)(C)C(=O)/C=C/c1ccc(Cl)cc1", "assayed_target": "RXF 393 renal", "assay_result": -82.8}

I would be grateful if you could provide growth for each of the following entries.
1. CCOC(=O)c1coc(C(=O)OCC)c1C(=O)OCC
2. NCCC(=O)c1ccc(Cl)cc1
3. O=C(CN1CCNCC1)N1CCOCC1
4. Cc1cc(=O)[nH]c(NN=C2CCCC2)n1
5. CC1=CC(C)(C)NC(=S)N1c1ccc(S(=O)(=O)O)c2cccc(S(=O)(=O)O)c12
6. O=C(CCNNC(=O)c1ccncc1)NCc1ccccc1
7. CCOc1ccc2[nH]c(=S)sc2c1

123
114
123
121
107
93.8
116

I would be grateful if you could provide growth for each of the following entries.
1. CC(=O)Oc1ccc(Br)cc1C(=O)O
2. O=[N+]([O-])c1ccc(/C=C/C=C/c2ccccc2)c(Cl)c1

1: 98.8; 2: 103

---

Test system: LOX IMVI melanoma
Experiment: NCI-60 one-dose screen, 48 h (100 = growth as untreated, 0 = no growth, -100 = all killed)
Details: 10 µM
Compounds without any hit were thinned out: in the full panel of roughly 83,000, 20% have a hit.
Field: growth. Provide a value for each of the compounds that follow.
Answers are plain numbers, in %.

{"compound": "N#C/C(=C\\c1cc(O)c(O)c(O)c1)C(N)=O", "growth, %": 92.3}

I would be grateful if you could provide growth for each of the following entries.
1. COc1cc(C(=O)NC(=S)Nc2ccc3ccccc3c2)cc(OC)c1OC
2. CN(C)C(C)(C)CC(C)(C)C
3. Cc1cc(O)ccc1O

1: 91; 2: 100; 3: 92.5

---

Field: growth. Provide a value for each of the compounds that follow.
Tested on: HT29 colon
Assay: NCI-60 one-dose screen, 48 h (100 = growth as untreated, 0 = no growth, -100 = all killed)
Details: 10 µM
This is part of a sample that, as a whole, favours compounds with a hit. Of some 83,000 tested, about 20% had one in any assay. Active and inactive are the calls of the source. How the source made its calls: active means growth percent below 10; inactive means the rest.

Study these solved cases before continuing.
{"compound": "OCC(O)C(O)C(O)C(O)/C=N/O (centres undefined)", "growth": "103% (inactive)"}
{"compound": "Oc1ccccc1O", "growth": "92.1% (inactive)"}
{"compound": "COc1ccc(NC(=O)CCl)cc1", "growth": "67.3% (inactive)"}
{"compound": "C=CC(=O)OCCCCCCCC", "growth": "124% (inactive)"}
{"compound": "O=C(O)CCCC(=O)O", "growth": "106% (inactive)"}

I would be grateful if you could provide growth for each of the following entries.
1. CCCNc1ccc(C2=NCCCN2)cc1
2. CCOC(=O)c1cc(/C=C/c2ccc(Cl)cc2Cl)on1
3. c1cc[n+](C2c3ccccc3C([n+]3ccccc3)c3ccccc32)cc1 (centres undefined)
4. O=C(CCl)Nc1ccc2c(c1)C(=O)c1ccc(NC(=O)CCl)cc1C2=O
5. O=C(O)[C@@H]1[C@H]2C[C@H]3c4[nH]c5ccccc5c4CCN3C[C@@H]2CC[C@@H]1O

["96% (inactive)", "1.53% (active)", "73.4% (inactive)", "-59.8% (active)", "103% (inactive)"]

I would be grateful if you could provide growth for each of the following entries.
1. Cc1c(O)cccc1O
2. COC(=O)c1ccccc1N(C)C
3. CC1CCCC(CC(N)=O)CC1 (centres undefined)
4. CCOC(=O)C(CCC(C)C)C(=O)OCC

1. 106% (inactive)
2. 94.8% (inactive)
3. 85% (inactive)
4. 94.4% (inactive)

---

Tested on: UO-31 renal
Experiment: NCI-60 one-dose screen, 48 h (100 = growth as untreated, 0 = no growth, -100 = all killed)
Settings: 10 µM
Compounds without any hit were thinned out: in the full panel of roughly 83,000, 20% have a hit.
parameter: growth (%)
Answers are plain numbers, in %.

Study these solved cases before continuing.
{"compound": "COc1cc2c3c(n(C)c(=O)c2cc1OC)-c1cc2c(cc1C3=O)OCO2", "growth / %": 32.6}
{"compound": "O=[N+]([O-])c1ccc(S(=O)(=O)NN=C2CCCCC2)cc1", "growth / %": 67.8}
{"compound": "CC(C)CCOC(=O)c1ccccc1", "growth / %": 92}
{"compound": "COc1cc(CCN=Cc2ccccc2O)c([N+](=O)[O-])cc1OC", "growth / %": 79.3}
{"compound": "O=C(O)COCC(=O)O", "growth / %": 91.4}

I would be grateful if you could provide growth for each of the following entries.
1. COc1ccc(-c2cc3c(nn2)-c2ccccc2C3=O)cc1
2. Cc1c(O)cccc1O
3. COc1ccc(NC(=O)CCl)cc1
4. CN(C)CCN(Cc1ccccc1)c1ccccc1
5. COc1ccc(/C(C#N)=C2C=C/C(=N/O)c3ccccc3\2)cc1
6. O=S(=O)(O)C(Nc1ccccc1)c1ccccc1 (stereo not drawn)
7. CCCCC/C=N/Nc1nc(C)cc(=O)[nH]1

1: 89.7; 2: 111; 3: 90.9; 4: 107; 5: 31.1; 6: 92.7; 7: 92.1

Given the compound "COC(=O)c1ccccc1Br" , what is its reported growth?
96.4
